Numbers sourced from paper PMC7887213.

# Experimental System: T1, NPNA2 peptide (Ac-[residues removed]-NH2) (Plasmodium falciparum (synthetic CSP …)
# T1 construct: source: synthetic peptide, bought: Innopep Inc
# Test Method Notes: ITC; peptide in the syringe, Fab (~10 uM) in the cell; DPBS; 25 C; single-site binding model; triplicate; apparent affinity
# Measurement Parameters: both partners purified
pKd: −log10 of the molar value.
Measure Name: pKd

{"Binder": "Fab356 (Fab, V domains shown, also called mAb356; source: ExpiCHO cells, purified (HiTrap Protein G, SEC)) VH: VQLVESGGGVVQPGRSLRLSCAASGFTFRNFGMHWVRQTPGKGLEWVAVIWHDGSNKFYADSVEGRFTISRDNSKNMIYLQMNSLRVEDTAIYYCARDSLFYDHDNSGYYGYWGQGTLVTVSS VL: QIVMTQSPATVSVSPGERATLSCRASRSVTSKLAWYQQKPGQAPRLLIYGASTRATGIPARFSGSGSGTEFTLTISSLQSEDFAVYFCQQYNNGFTFGPGTKVDFK", "Measured Number": 5.08}
